- Tested on: 786-0 renal
- assay explanation: NCI tumour cell line growth inhibition, 48 h
readout label: TGI (µM)
Give just the numeric value; µM need not be written.

Tell me measured TGI for Cc1nc2c(o1)C(=O)c1ccccc1C2=NC1CCCCC1N (stereo not given) please.
3.43

Tell me measured TGI for CC12OC(C(=O)C13CC3)C1C(=O)c3ccccc3C(=O)C12 (stereo not given) please.
37.6

Tell me measured TGI for COc1cccc(NC(=O)c2sc3nc4c(cc3c2N)CCCC4)c1 please.
19.2

Tell me measured TGI for CC(C)(C)c1cc(C(=O)/C=C/c2ccc(O)c(O)c2O)cc(C(C)(C)C)c1O please.
28.8

Tell me measured TGI for OC1c2ccccc2[C@@H]2[C@H]1[C@@H](c1ccccc1)C1(Cc3ccccc3C1O)[C@H]2c1ccccc1 (stereo not given in full) please.
8.28

Tell me measured TGI for N#C/C(=C\c1c(-c2ccccc2)[nH]c2ccccc12)C(=O)c1ccc(Cl)cc1 please.
23.5

Tell me measured TGI for CC1(C)N=C(N)N=C(N)N1c1cccc(/C=C/C=C/c2cccc([N+](=O)[O-])c2)c1 please.
52.9

Tell me measured TGI for O=C(c1ccc(Cl)cc1Cl)N(Cc1cccnc1)C(=S)N(Cc1cccnc1)C(=O)c1ccc(Cl)cc1Cl please.
5.34

Tell me measured TGI for O=C(c1cccs1)c1c(C(F)(F)F)n([O-])c2ccc(C(F)(F)F)cc2[n+]1=O please.
0.339

Tell me measured TGI for Clc1ccccc1/C=C/c1nsc(/C=C/c2ccccc2Cl)n1 please.
39.1

Tell me measured TGI for C/C(=N\NC(=S)Nc1ccc(C(=O)O)cc1)c1ccccn1 please.
43.3

Tell me measured TGI for O=C1/C(=C\c2ccc(Cl)cc2)CN(C(=S)Nc2ccccc2)C/C1=C\c1ccc(Cl)cc1 please.
1.23

Tell me measured TGI for CCCCCCCCCCCCc1ccc(C(=O)/C=C/C(=O)O)cc1 please.
4.05

Tell me measured TGI for COc1ccc(-c2cc(-c3ccc(Nc4nc(Nc5ccc(Cl)cc5)nc(Nc5ccc(Cl)cc5)n4)cc3)nc(N)c2C#N)cc1 please.
5.68

Tell me measured TGI for COC(=O)[C@@H]1C=C[C@@H](C#N)n2c(=O)n(-c3ccccc3)c(=O)n21 please.
84.7

Tell me measured TGI for C[C@H](CCC1=NCCN1)[C@H]1CC[C@H]2[C@@H]3[C@H](O)C[C@@H]4C[C@H](O)CC[C@]4(C)[C@H]3CC[C@]12C please.
27.7

Tell me measured TGI for COc1cc2c3c(n(C)c(=O)c2cc1OC)-c1cc2c(cc1/C3=C\CCCCN)OCO2 please.
19.6
